TARGET_UNDER_TEST: MERS-CoV spike protein (EMC/2012), wt (MERS-CoV (isolate EMC/2012), UniProt K9N5Q8 18-1353)
ASSAY_TEXT: cell-based or functional assay
PARAMETER_MEASURED: % Neutralization (.025 µg/ml), MERSpp infectivity (%)

| BINDER | MEASURED_NUMBER |
| --- | --- |
| H2aM15279N (antibody, V domains shown) VH: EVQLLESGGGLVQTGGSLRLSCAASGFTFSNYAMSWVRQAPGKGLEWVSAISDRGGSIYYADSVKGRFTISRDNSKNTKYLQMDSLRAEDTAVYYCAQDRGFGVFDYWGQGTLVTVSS VL: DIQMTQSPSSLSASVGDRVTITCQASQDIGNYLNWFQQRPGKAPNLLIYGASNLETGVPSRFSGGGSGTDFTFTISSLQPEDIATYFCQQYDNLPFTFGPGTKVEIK | 97 |
| H2aM15287N (antibody, V domains shown) VH: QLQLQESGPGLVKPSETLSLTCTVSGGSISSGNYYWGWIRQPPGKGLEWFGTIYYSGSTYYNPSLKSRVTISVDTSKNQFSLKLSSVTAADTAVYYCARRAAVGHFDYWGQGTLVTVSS VL: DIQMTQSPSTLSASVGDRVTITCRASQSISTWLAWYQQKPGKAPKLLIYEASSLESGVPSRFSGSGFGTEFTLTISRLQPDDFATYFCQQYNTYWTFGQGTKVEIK | 5 |
| H2aM15270N (antibody, V domains shown) VH: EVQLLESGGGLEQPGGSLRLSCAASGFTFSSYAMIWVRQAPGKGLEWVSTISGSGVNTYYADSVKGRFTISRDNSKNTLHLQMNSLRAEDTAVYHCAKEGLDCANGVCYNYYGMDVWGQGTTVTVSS VL: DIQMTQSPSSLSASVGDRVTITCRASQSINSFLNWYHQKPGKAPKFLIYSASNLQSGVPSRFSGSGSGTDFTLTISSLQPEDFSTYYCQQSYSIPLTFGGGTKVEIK | 98 |

Data origin: patent US20190351049A1
